- Test: chemical genetic growth profiling, strain panel (AID 1159580);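 note: tested at 20 µM; growth read once vehicle control cultures reached saturation at 30 °C; 1 = growth at the plate median or of vehicle wells; lower values mean less growth of the strain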
- Recorded conditions: S. cerevisiae deletion strains, growth OD, locus YNL153C, strain GIM3, stronger effect = lower value
Screen size: about 5,500 compounds; about 2,000 (36%) were called active. Not shown: some 18% with an inconclusive outcome. Some of the results follow.
Entries and their normalized growth
Assay metric: normalized growth

> print(dat)
                                    molecule       measurement
 1  O=[N+]([O-])c1ccc(OCCCOc2ccc([N+](=O)[O-])cc2)cc1  0.995 (inactive)
 2  OC1(C(F)(F)F)CC(c2ccccc2)=NN1 (stereo unspecified)  0.981 (inactive)
 3                    CCC(=O)c1c(O)cc(O)cc1O   1.02 (inactive)
 4  CC(C1OC(C)(C)C(O)C1O)[C@@H]1CC[C@]2(C)C3=CCC4C(C)(C)C(=O)CC[C@]4(C)C3CC[C@@]12C (stereo partly specified)   0.97 (inactive)
 5  CCCC1O[C@@H]2C[C@H]3[C@@H]4CCC5=CC(=O)C=C[C@]5(C)[C@H]4[C@@H](O)C[C@]3(C)[C@]2(C(=O)CO)O1 (stereo partly specified)  0.982 (inactive)
 6  Cc1ccc(-c2csc(-c3ccc(Oc4ccc(C(F)(F)F)cn4)cc3)n2)c(C)c1   1.02 (inactive)
 7  OC1(C(F)(F)F)CC(c2ccc3ccccc3c2)=NN1 (stereo unspecified)    0.239 (active)
 8                   CCOC(=O)c1c(C)cc(O)cc1O    0.9 (inactive)
 9  N#Cc1ccc(-c2csc(-c3ccc(Oc4ccc(C(F)(F)F)cn4)cc3)n2)cc1   1.02 (inactive)
10  COC(=O)C1OC(=O)C2OC23C1(C)CCC1C2(C)C(OC(C)=O)CC(OC(C)=O)C(C)(C)C2CC(=O)C13C (stereo unspecified)      1 (inactive)
11  CCN(Cc1ccncc1)C(=O)C(CO)c1ccccc1 (stereo unspecified)  0.992 (inactive)
12                  CCOC(=O)c1c(C)cc(OC)cc1O  0.989 (inactive)
13  CC(C)(C)NCC(O)c1cc(Cl)c(N)c(Cl)c1 (stereo unspecified)      1 (inactive)
14  O=C1CC(Nc2ccccc2)C=C1Nc1ccccc1 (stereo unspecified)      1 (inactive)
15           COc1ccccc1NC(=O)NCCSCc1ccccc1Cl   1.01 (inactive)
16         S=C=Nc1cccc(C2(N3CCCCC3)CCCCC2)c1  0.968 (inactive)

====

- Test: chemical genetic growth profiling, strain panel (AID 1159580);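 note: tested at 20 µM; growth read once vehicle control cultures reached saturation at 30 °C; 1 = growth at the plate median or of vehicle wells; lower values mean less growth of the strain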
- Recorded conditions: S. cerevisiae deletion strains, growth OD, locus YDR150W, strain NUM1, stronger effect = lower value
The whole screen tested about 5,500 compounds, of which about 2,000 (36%) were called active. Roughly 18% stayed inconclusive and do not appear here. The list shows a part of the results.
Assay metric: normalized growth

> print(dat)
                            molecule.smiles  measurement
1  N#C/C(=C\c1ccc(O)c(O)c1)C(=O)NCCc1ccccc1        0.988
2  O=c1cc(-c2ccc(O)cc2)oc2cc(O[C@@H]3O[C@H](CO)[C@@H](O)[C@H](O)[C@H]3O)cc(O)c12        0.988
3  CC(C)(C)c1cc(/C=C(\C#N)C(N)=S)cc(C(C)(C)C)c1O            1
